Test: TNF-a-driven NF-kB reporter inhibitors, primary screen, selectivity assay for NOD1/NOD2 signaling inhibitor project, cell-based, HEK293T NF-kB-Luc, luminescence (AID 1852)
Details: TNF-a induced, 14 h, at 4 µM, stronger effect = higher value
About 1,100 (44%) of roughly 2,500 compounds were called active. The set was probably picked from earlier hits. The list shows a part of the results.
measurement_name: inhibition

These solved cases illustrate the format of a correct answer.
INSERT INTO measurements (query_smiles, measurement_name, experimental_result) VALUES
  ('Cc1csc2ncnc(N3CCN(C(=S)Nc4ccc(F)cc4F)CC3)c12', 'inhibition', '66.9% (active)'),
  ('OCCCNc1cc(-c2ccnc(Nc3cccc(Cl)c3)n2)ccn1', 'inhibition', '96.3% (active)'),
  ('COc1ccc(NC(=O)C2CCN(c3ncnc4c3nc3n4CCCCC3)CC2)cc1Cl', 'inhibition', '43.2% (inactive)'),
  ('COc1ccc(C(=O)N/N=C/c2ccc(OC(=O)c3cccc4ccccc34)c([N+](=O)[O-])c2)cc1', 'inhibition', '41.6% (inactive)'),
  ('Oc1nc(Nc2cccc(Cl)c2)sc1/C=C1\C=Nc2ccccc21', 'inhibition', '-12.4% (inactive)');

Looking up O=C(Nc1nc2c(Cl)cccc2s1)c1ccc([N+](=O)[O-])o1 , I found its inhibition recorded as 6.3% (inactive)

Looking up Cc1csc2c(N3CCN(C(=S)Nc4ccc(C(F)(F)F)cc4)CC3)ncnc12 , I found its inhibition recorded as 78.5% (active)

----------
Experiment: TNF-a-driven NF-kB reporter inhibitors, primary screen, selectivity assay for NOD1/NOD2 signaling inhibitor project, cell-based, HEK293T NF-kB-Luc, luminescence (AID 1852)
Settings: TNF-a induced, 14 h, at 4 µM
The whole screen tested about 2,500 compounds, of which about 1,100 (44%) were called active.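 How the source made its calls: active means inhibition above 50% at 4 µM in the single-point screen; inactive means inhibition of 50% or less.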 So high a share suggests a set chosen from earlier hits. The list shows a part of the results.
Your reply should match one of these outcome classes. class 1 for active, class 0 for inactive

INSERT INTO results (compound, class) VALUES
  ('CC(C)c1ccc(S(=O)(=O)/N=C2\C=C(NS(=O)(=O)c3ccccc3)C(=O)c3ccccc32)cc1', 'class 1'),
  ('CCN(c1ccccc1)S(=O)(=O)c1ccc(NC(=O)c2nc(S(C)(=O)=O)ncc2Cl)cc1', 'class 0'),
  ('CCS(=O)(=O)c1ncc(Cl)c(C(=O)Nc2ccc(S(=O)(=O)N(C)c3ccccc3)cc2)n1', 'class 1'),
  ('CC1=NN(c2ccc(Cl)cc2)C(=O)C1C(c1ccccc1O)c1c(C)[nH]n(-c2ccc(Cl)cc2)c1=O (stereo unspecified)', 'class 0'),
  ('O=C(Nc1ccc(F)cc1)c1nc(S(=O)(=O)Cc2ccccc2)ncc1Cl', 'class 1');

Please examine the following record next.
Input: Lab log entry: Cc1[nH]n(-c2ncc(-c3ccccc3)s2)c(=O)c1C(c1ccc(Cl)cc1)C(C#N)C#N (stereo unspecified) — outcome as called in the assay?
Output: class 0

----------
Test: TNF-a-driven NF-kB reporter inhibitors, primary screen, selectivity assay for NOD1/NOD2 signaling inhibitor project, cell-based, HEK293T NF-kB-Luc, luminescence (AID 1852)
Details: TNF-a induced, 14 h, at 4 µM, stronger effect = higher value
The campaign covered roughly 2,500 compounds. About 1,100 (44%) were called active. So high a share suggests a set chosen from earlier hits. The list shows a part of the results.
Measured inhibition by item

These solved cases illustrate the format of a correct answer.
INSERT INTO measurements (compound, experimental_result) VALUES
  ('COc1ccc2cc3c(N)nn(C(=O)c4cccc([N+](=O)[O-])c4)c3nc2c1', '65.4% (active)'),
  ('Cc1ccc(-n2c(C)cc(/C=c3/sc4nc5ccccc5n4c3=O)c2C)cc1', '-32% (inactive)'),
  ('Cc1nc2ccccc2c(C)c1C(=O)c1ccc(F)cc1', '66% (active)'),
  ('CC(Oc1ccc(Br)cc1)c1nc2c3ccccc3nc(=S)n2[nH]1 (configuration not stated)', '101% (active)'),
  ('Cc1ccc(NC(=O)C2=C(c3ccccc3)S(=O)(=O)CCS2(=O)=O)cc1', '65% (active)'),
  ('COc1cc(S(=O)(=O)NCc2ccncc2)ccc1Br', '45.8% (inactive)');

Looking up Brc1ccccc1OCCCCn1cnc2ccccc21 , I found its inhibition recorded as -10.4% (inactive)

Looking up Cc1ccc(C(=O)NC(=S)N(C)C2CCCCC2)cc1Br , I found its inhibition recorded as 106% (active)

Looking up CCc1cc(C(=O)NC2CCCN(Cc3ccccc3F)C2)n(C)n1 (configuration not stated) , I found its inhibition recorded as 57.5% (active)

Looking up COC(=O)c1ccc2nc(Nc3nc4c(F)cc(F)cc4s3)sc2c1 , I found its inhibition recorded as 35.5% (inactive)

Looking up O=C(NC1CCCCC1)C(c1cccnc1)N(C(=O)CCl)c1ccc(F)cc1 (configuration not stated) , I found its inhibition recorded as 69.8% (active)

Looking up O=c1c2c(nc3c(-c4cccc(Br)c4)c[nH]n13)CCCC2 , I found its inhibition recorded as 83% (active)

Looking up O=c1c2c(nc3c(-c4ccc(Cl)cc4)c[nH]n13)CCCC2 , I found its inhibition recorded as 75.3% (active)

Looking up C=CCSc1nc2ccccc2n1C(=O)/C=C/c1ccc(OC)c(OC)c1 , I found its inhibition recorded as 89.7% (active)

Looking up COc1ccc(C(C(=O)NC2CCCCC2)N(C(=O)CCl)c2ccc(OC)cc2)cc1 (configuration not stated) , I found its inhibition recorded as 40.2% (inactive)

Looking up CCCc1cc(=O)n2[nH]cc(-c3ccc(Cl)cc3)c2n1 , I found its inhibition recorded as 101% (active)

Looking up COc1cccc(C(=O)c2sc(NC(C)C)nc2N)c1 , I found its inhibition recorded as 41.4% (inactive)
